assay: in vitro; settings: hepatocytes
hepatocyte CLint for assorted compounds

As a guide, the following entries are already answered.
| smiles representation | hepatocyte CLint |
| --- | --- |
| Cc1ccc(-c2nnc(SCC(=O)N3CCN(c4ccccc4)CC3)o2)cc1 | > 150 µL/min/1e6 cells |
| O=C(O)COc1cccc(N2CCC(CN3CCC(Oc4ccc(Cl)c(Cl)c4)CC3)CC2)c1 | < 3 µL/min/1e6 cells |
| Cc1c(OC2CCN(CC3CCN([C@@](C)(Cc4ccc(F)cc4)C(=O)O)CC3)CC2)ccc(Cl)c1Cl | < 3 µL/min/1e6 cells |

Incoming: # hepatocyte CLint lookup, item CC(C)C[C@H](N)C(=O)NC[C@H](O)C[C@@H](N)CC(=O)NN(C)CC(=O)O
Outgoing: < 3 µL/min/1e6 cells

Incoming: One more compound: Cc1cc(CCCOc2c(Cl)cc(C3=NCCO3)cc2Cl)on1
Outgoing: > 150 µL/min/1e6 cells

Incoming: Now this one: CCCc1nn(C)c2c(=O)[nH]c(-c3cc(S(=O)(=O)N4CCN(C)CC4)ccc3OCC)nc12
Outgoing: > 150 µL/min/1e6 cells

Incoming: And what about the compound N#Cc1cc(-c2n[nH]c(-c3ccncc3)n2)ccn1 ?
Outgoing: < 3 µL/min/1e6 cells

Incoming: Request: COc1ccc([C@@H]2Sc3ccccc3N(CCN(C)C)C(=O)[C@@H]2OC(C)=O)cc1
Outgoing: > 150 µL/min/1e6 cells

Values were extracted from ChEMBL document CHEMBL3301361.
